Reference source: PubChem BioAssay (NCI)

Tested on: HCT-15 colon
procedure text: NCI-60 one-dose screen, 48 h
condition: 10 µM unless noted
This is part of a sample that, as a whole, favours compounds with a hit. Of some 83,000 tested, about 20% had one in any assay. The source made the active and inactive calls. The calls were made as follows: active = growth percent below 10; inactive = the rest.
Valid outcomes are listed here; reply with one: T (active), F (inactive)

What classification did `CN=C(NC)N/N=C(C)\C=N\NC(=NC)NC` end up with in this test? F

What classification did Nc1c2ccccc2nc2ccccc12 (tested in a mixture with another compound) end up with in this test? F

What classification did `O=C1Cc2cc(CCn3cncn3)c(Cl)cc2N1` end up with in this test? F

What classification did `Cc1ccccc1NC(=O)c1cc2ccccc2cc1O` end up with in this test? F

What classification did `COc1ccc(-c2cn(-c3ccccc3)c(-c3ccccc3)n2)cc1OC` end up with in this test? F

What classification did `O=C1/C(=C/c2ccc([N+](=O)[O-])o2)Oc2ccc(Br)cc21` end up with in this test? T

What classification did `O=C(CSCC(=O)N/N=C/c1ccccc1O)N/N=C\c1ccccc1O` end up with in this test? F

What classification did `O=C(Nc1ccc(Oc2ccc(NC(=O)Nc3ccc([N+](=O)[O-])cc3)cc2)cc1)Nc1ccc([N+](=O)[O-])cc1` end up with in this test? F

What classification did `COC(=O)[C@]1(CCSC)N[C@H](c2cn(-c3ccccc3)nc2C)[C@@H]2C(=O)N(c3ccc(C)cc3)C(=O)[C@@H]21` end up with in this test? F

What classification did CCCCCCCC/C=C/CCCCCCCC1=NC(C)(C)CN1CC(C)O (stereo unspecified) end up with in this test? F

What classification did `CN(C(=O)c1ccccc1)N(C)C(=O)c1ccccc1` end up with in this test? F

What classification did `S=C(Nc1ccc(C2=NCCN2)cc1)Nc1ccc(C2=NCCN2)cc1` end up with in this test? F

What classification did `COc1ccc(/C(=C2\O[C@@H]([C@H](O)CO)[C@H]3OC(C)(C)O[C@@H]23)c2cc(OC)c(OC)c(OC)c2)cc1O` end up with in this test? F

What classification did `CCCCSc1cc(C)nc(N)n1` end up with in this test? F

What classification did `Clc1ccc(-c2nc(-c3cccs3)no2)c(Cl)c1` end up with in this test? F

What classification did `O[C@@H]1Cc2ccc3ccccc3c2N[C@H](c2ccoc2)C1` end up with in this test? F

* * *

Tested on: OVCAR-3 ovarian
procedure text: NCI-60 one-dose screen, 48 h (100 = growth as untreated, 0 = no growth, -100 = all killed)
condition: 10 µM unless noted
The panel holds about 83,000 compounds, 20% with a hit somewhere; the sample as a whole holds those more often.
Give growth for every item shown.
Respond with the bare value in %.

Value lookup for growth; key = `CC(c1cc(Cl)ccc1O)c1cc(Cl)ccc1O` 28.2

Value lookup for growth; key = `COc1ccc2c(c1)nc(N)c1c3ccccc3cn21` 79.3

Value lookup for growth; key = `COc1cc(NC(=O)c2cc3ccccc3cc2O)c(OC)cc1Cl` 10.7

Value lookup for growth; key = `COc1ccc(-c2cc(Cc3cccs3)c(=O)n(Cn3cncn3)n2)cc1` 113

Value lookup for growth; key = Cc1ccc(C(O)C2=CC(=O)c3ccccc3C2=O)cc1 (stereo unspecified) 93.3

Value lookup for growth; key = `CSC1=Nc2c(c(C)c(-c3ccccc3)n2CCCN2CCCCC2)C2=NC(=O)C[C@H](C)N12` 24.5

Value lookup for growth; key = `Cn1c(=O)c2c(nc(Br)n2CCC(=O)Nc2ccc(F)cc2)n(C)c1=O` 125

Value lookup for growth; key = `Nc1ccccc1-c1ccc([N+](=O)[O-])cc1` 71.7

Value lookup for growth; key = `Cc1c(C(N)=O)sc2c1c(=O)n(Cc1ccccc1)c1nnc(SCC(=O)Nc3ccc(Cl)cc3)n21` -3.77

Value lookup for growth; key = `O[C@@H]1Cc2ccc3ccccc3c2N[C@H](c2ccoc2)C1` 115

Value lookup for growth; key = `O=C1NC(=O)/C(=C\c2ccccc2)C2=C1CCCC2` -73.9

* * *

Tested on: OVCAR-5 ovarian
procedure text: NCI-60 one-dose screen, 48 h (100 = growth as untreated, 0 = no growth, -100 = all killed)
condition: 10 µM unless noted
This is part of a sample that, as a whole, favours compounds with a hit. Of some 83,000 tested, about 20% had one in any assay. Active and inactive are the calls of the source. The calls were made as follows: active = growth percent below 10; inactive = the rest.
Give growth for every item shown.

Value lookup for growth; key = `Cn1cc(-c2csc(-c3cn(C)c4ncccc34)n2)c2cc(F)cnc21` 91.3% (inactive)

Value lookup for growth; key = `O=C(/C=C/c1ccc(Cl)cc1)c1ccccc1` 99.5% (inactive)

Value lookup for growth; key = `NC(N)=NC(N)=NCCCc1ccccc1` 76.3% [100 µM] (inactive)

Value lookup for growth; key = `COc1ccc(C(=O)COc2cccc(/C=C3\Oc4ccc5ccccc5c4C3=O)c2)cc1` 103% (inactive)

Value lookup for growth; key = `Clc1ccc2nc(Cl)c3ccccc3c2c1` 78% (inactive)

Value lookup for growth; key = Clc1ccc(CCC(Cn2ccnc2)Sc2c(Cl)cccc2Cl)cc1 (stereo unspecified) 68% (inactive)

* * *

Tested on: COLO 205 colon
procedure text: NCI-60 one-dose screen, 48 h
condition: 10 µM unless noted
About 83,000 compounds went through this panel and 20% of them were active in at least one assay; those are over-represented in the sample as a whole. The source made the active and inactive calls. The calls were made as follows: active = growth percent below 10; inactive = the rest.
Valid outcomes are listed here; reply with one: active, inactive

What classification did `Cc1nn(-c2ccccc2)c(Cl)c1C(CC(=O)c1ccc(Cl)cc1)CC(=O)c1ccc(Cl)cc1` end up with in this test? inactive

What classification did `COc1ccc(-n2nnc(C(=O)O)c2-c2cc(OC)c(OC)c(OC)c2)cc1` end up with in this test? inactive

What classification did `O=Nc1ccc(O)c(=O)cc1` end up with in this test? active

What classification did `NS(=O)(=O)c1ccc(NC2=C(Cl)C(=O)c3ccccc3C2=O)cc1` end up with in this test? inactive

What classification did `COc1cc(/C=C/C(=O)c2c(-c3ccc(Cl)cc3)nc3sc(C)nn23)cc(OC)c1OC` end up with in this test? inactive

What classification did Cc1cc(C)c2c(c1)N1OC(C2)C[C@H]1/C=C/c1ccccc1 (stereo not given in full) end up with in this test? inactive

What classification did `COc1ccc(-c2nn(-c3ccccc3)cc2/C=C2\SC(=S)N(CCc3ccc(O)cc3)C2=O)cc1` end up with in this test? inactive

What classification did `COC(=O)[C@]1(CCSC)N[C@H](c2cn(-c3ccccc3)nc2C)[C@@H]2C(=O)N(c3ccccc3)C(=O)[C@@H]21` end up with in this test? inactive

What classification did `O=C(Nc1ccc(C2=NCCCN2)cc1)Nc1ccc(C2=NCCCN2)cc1` end up with in this test? inactive

What classification did `COc1ccc(Cn2cc3c(c2-c2ccccc2)CCc2cncnc2-3)cc1` end up with in this test? inactive

* * *

System: SF-268 CNS
procedure text: NCI-60 one-dose screen, 48 h (100 = growth as untreated, 0 = no growth, -100 = all killed)
condition: 10 µM unless noted
The panel holds about 83,000 compounds, 20% with a hit somewhere; the sample as a whole holds those more often.
observable: growth (%)
Respond with the bare value in %.

Value lookup for growth; key = O=C1CCCN1C1CCN(Cc2cc3ccccc3[nH]c2=O)c2ccccc21 (configuration not stated) 94.7

Value lookup for growth; key = `COc1ccc2c3c(c(OCCCN(C)C)nc2c1)-c1ccc(Cl)cc1C3=O` 43.9

Value lookup for growth; key = `CCC(=O)Nc1ccccc1C#C/C=C\C#Cc1ccccc1C(F)(F)F` 67.8

Value lookup for growth; key = `O=C1/C(=C/c2ccc3cccc(Cl)c3n2)SC(=S)N1CCc1ccc(O)cc1` 84.9

Value lookup for growth; key = `COc1ccc(-c2noc(N)c2-c2cc(OC)c3c(c2)OCO3)cc1` 35.6

Value lookup for growth; key = `CSC1=Nc2c(c(C)c(-c3ccccc3)n2CCCN2CCCCC2)C2=NC(=O)C[C@H](C)N12` 66.2

Value lookup for growth; key = `O=C1N(C2CCCCC2)C(=O)N1C1CCCCC1` 65.3

Value lookup for growth; key = `COc1ccc(/C=N\Nc2ccc([N+](=O)[O-])cn2)cc1OC` 73.3

Value lookup for growth; key = `Cc1[nH]n(C(N)=S)c(=O)c1N=Nc1ccc(F)c(Cl)c1` 92.2

Value lookup for growth; key = `Cc1nc2c(O)cccc2cc1CO` 99.8

Value lookup for growth; key = `CCOc1cc(C(C)(C)C)ccc1C1=N[C@H](c2ccc(Cl)cc2)[C@H](c2ccc(Cl)cc2)N1C(=O)N1CCN(CC#Cc2cccc3c2CN([C@@H]2CCC(=O)NC2=O)C3=O)CC1` 39.9

Value lookup for growth; key = `O=C1CN(CO)C(=O)CN1CO` 105

Value lookup for growth; key = `Clc1cc(Cl)c(OCC#CI)cc1Cl` 98.6

Value lookup for growth; key = O=c1ccn(C2CCCO2)c(=O)[nH]1 (configuration not stated) 104

Value lookup for growth; key = `COc1cccc(-c2nnc(N)o2)c1` 111

Value lookup for growth; key = `O=C(/C(=C/c1cccc([N+](=O)[O-])c1)c1ccccc1)c1ccccc1` 34.4

Value lookup for growth; key = `CN(CC(=O)N(Cc1ccc(C2CCCCC2)cc1)c1ccc(C(=O)O)cc1)S(=O)(=O)c1c(F)c(F)c(F)c(F)c1F` 67.5

Value lookup for growth; key = `Cc1nc2cc(NC(=O)CN3CCN(CCN4C(=O)c5cccc6cccc(c56)C4=O)CC3)ccc2s1` 46.2

Value lookup for growth; key = `CC(C)[O-].CC(C)[O-].CN(CCN(C)Cc1cc(F)cc(F)c1[O-])Cc1cc(F)cc(F)c1[O-].[Ti+4]` 6.13

Value lookup for growth; key = `Cc1c(C)c(N2C(=O)C=CC2=O)c(C)c(C)c1N1C(=O)C=CC1=O` 110

Value lookup for growth; key = `COc1cc(OC)c2sc(-c3ccc(-n4cncc4-c4ccc(N)cc4)cc3)nc2c1` 74.5

Value lookup for growth; key = `Cc1ccc(NC(=O)COC(=O)c2ccc(S(=O)(=O)N3CCCCCC3)cc2)cc1` 94.6

Value lookup for growth; key = `COc1ccc(-c2c3c(nn2-c2ccc(N)cc2)CCc2cnoc2-3)cc1OC` 90.8

Value lookup for growth; key = `CCOc1ccccc1C(=O)OCC(=O)Nc1cccc(S(=O)(=O)N(C)C)c1` 122

Value lookup for growth; key = `Cc1cc2cn3c4cccnc4[nH]c(=O)c3c2cc1C` 73.4

Value lookup for growth; key = `CCN(CC)c1ccc(CN(CC(=O)c2ccc(Cl)c(Cl)c2)Cc2ccccc2)cc1` 102

Value lookup for growth; key = `COc1ccc2c(c1)nc(N)c1c3cc(OC)c(OC)cc3cn21` 55.1

Value lookup for growth; key = `CCOc1nc(-c2ccccc2)cc2c(O)c(C(=O)n3nc(C)cc3C)[nH]c(=O)c12` 99

Value lookup for growth; key = `CCOC(=O)c1c(C)c(C(=O)OCC)n(C)c1C` 93.9

Value lookup for growth; key = `O=C1/C(=C/c2ccc([N+](=O)[O-])s2)Oc2ccc(Br)cc21` -52.1

Value lookup for growth; key = `O=C(NN(C(=O)c1ccccc1)c1cccs1)c1ccccc1` 112

Value lookup for growth; key = `Clc1ccc2c(Nc3ccc4oc(NCCN5CCCC5)nc4c3)ccnc2c1` 72.5

Value lookup for growth; key = `CN=C(NC)N/N=C(C)\C=N\NC(=NC)NC` 99.5

Value lookup for growth; key = COc1cc(C2NC(c3ccc(Cl)cc3)C(C)/C(=N/NC(N)=S)C2C)cc(OC)c1OC (configuration not stated) 101

Value lookup for growth; key = `COc1ccc(-c2cncn2-c2ccc(-c3nc4cc(OC)c(OC)c(OC)c4s3)cc2)cc1N` 93.1

Value lookup for growth; key = `Cc1cc(O)c2c(c1)C[C@H]1[C@@H]3CC[C@H]4CC(=O)CC[C@]4(C)[C@H]3CC(=O)[C@]21C` 87.6

Value lookup for growth; key = `C/C(=C\CCc1ccsc1)CC/C=C(\C)CCCN1CCC(CO)CC1` 60.6

Value lookup for growth; key = `O=C(O)C(=O)O` 108

Value lookup for growth; key = CC(C)COCC(CN(Cc1ccccc1)c1ccccc1)N1CCCC1 (configuration not stated) 71.5

Value lookup for growth; key = `Cc1c(C(N)=O)sc2ncn(CC(=O)Nc3ccc(Cl)cc3)c(=O)c12` 119

Value lookup for growth; key = `COC(=O)[C@]1(C(C)C)N[C@H](c2cn(-c3ccccc3)nc2-c2ccccc2)[C@@H]2C(=O)N(c3ccc(Cl)cc3)C(=O)[C@@H]21` 90.8

Value lookup for growth; key = CC1SC(c2c(Cl)cccc2Cl)N(NC(=O)c2[nH]c3ccc(F)cc3c2-c2ccccc2)C1=O (configuration not stated) 44.3
